Hello, the source for this data is ChEMBL document CHEMBL1123932, in case you need it.

TESTED_SYSTEM: Adrenergic receptor alpha-1 (Rattus norvegicus, UniProt P15823+P23944+P43140)
TEST: Antagonistic activity against postsynaptic Alpha-1 adrenergic receptor in isolated rat vas deferens using (-)-phenylephrine as agonist
Format: functional, tissue-based
METRIC_NAME: pA2

# STRUCTURE_SMILES_STRING, pA2
data = [
    ("CC(=O)O[C@@H]1CC[C@@H]2CN3CCc4cc5c(cc4[C@@H]3C[C@@H]2C1)OCO5", 4.55),
    ("CCOC(=O)[C@H]1[C@H]2C[C@H]3c4cc5c(cc4CCN3C[C@H]2CC[C@H]1O)OCO5", 5.51),
    ("COC(=O)[C@@H]1C[C@@H]2CN3CCc4cc5c(cc4[C@@H]3C[C@@H]2C[C@@H]1O)OCO5", 4.8),
    ("COC(=O)[C@H]1C[C@H]2CN3CCc4cc5c(cc4[C@@H]3C[C@@H]2C[C@@H]1O)OCO5", 5.98),
    ("COc1cc2c(cc1OC)[C@@H]1C[C@@H]3C[C@H](OC(C)=O)CC[C@@H]3CN1CC2", 4.54),
    ("OC[C@@H]1[C@H]2C[C@H]3c4cc5c(cc4CCN3C[C@@H]2CC[C@H]1O)OCO5", 5.25),
]
